Numbers sourced from ChEMBL document CHEMBL2384909.

parameterMeasured: IC50

Provide Voltage-gated inwardly rectifying potassium channel KCNH2 (Homo sapiens, UniProt Q12809) IC50 reading for O=C(O)c1cccc(CN2C(=O)/C(=C(\c3ccccc3)c3ccc(Cl)cc3)c3ccccc32)c1 .
> 20 µM

====

# assayProcedure: Plasma concentration in Wistar rat at 10 mg/kg, po after 4 hrs by LC-MS/MS analysis
# Type: ADME, organism-based
# Parameters: dose 10 mg/kg, route oral
parameterMeasured: concentration at 4 h (ng/mL)
Value expressed in ng/mL; do not type the unit.

Report concentration at 4 h for O=C(O)c1cccc(CN2C(=O)/C(=C(\c3ccccc3)c3ccc(Cl)cc3)c3ccccc32)c1
3270

====

# systemName: AMPK alpha2/beta1/gamma1 (Homo sapiens) (UniProt P54646+P54619+Q9Y478)
# Sequence (P54619 whole entry partner): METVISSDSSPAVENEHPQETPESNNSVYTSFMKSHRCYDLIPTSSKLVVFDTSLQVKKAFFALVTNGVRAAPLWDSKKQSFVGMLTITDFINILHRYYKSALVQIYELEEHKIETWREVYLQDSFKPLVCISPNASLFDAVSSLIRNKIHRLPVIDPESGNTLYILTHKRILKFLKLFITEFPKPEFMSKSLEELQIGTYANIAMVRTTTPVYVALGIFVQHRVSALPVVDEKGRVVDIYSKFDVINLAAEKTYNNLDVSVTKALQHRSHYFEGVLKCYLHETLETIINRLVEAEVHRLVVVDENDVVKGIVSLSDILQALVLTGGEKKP
# Sequence (P54646 whole entry): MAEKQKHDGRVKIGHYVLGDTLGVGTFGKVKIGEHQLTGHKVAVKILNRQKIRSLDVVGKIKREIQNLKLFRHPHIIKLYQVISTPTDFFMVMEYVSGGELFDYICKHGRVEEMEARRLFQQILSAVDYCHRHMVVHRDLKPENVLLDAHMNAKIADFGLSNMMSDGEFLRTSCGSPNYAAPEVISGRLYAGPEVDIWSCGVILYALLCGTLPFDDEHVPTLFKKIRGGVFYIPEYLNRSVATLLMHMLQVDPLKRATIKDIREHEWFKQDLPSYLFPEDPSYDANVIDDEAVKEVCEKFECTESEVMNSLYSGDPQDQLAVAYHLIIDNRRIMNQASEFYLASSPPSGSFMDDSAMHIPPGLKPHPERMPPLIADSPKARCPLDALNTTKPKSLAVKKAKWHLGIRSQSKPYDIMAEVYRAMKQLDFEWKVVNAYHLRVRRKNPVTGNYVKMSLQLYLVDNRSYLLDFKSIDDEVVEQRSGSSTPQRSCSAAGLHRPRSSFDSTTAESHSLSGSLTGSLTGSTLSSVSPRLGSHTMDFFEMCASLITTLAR
# Sequence (Q9Y478 2-270 partner limits assumed): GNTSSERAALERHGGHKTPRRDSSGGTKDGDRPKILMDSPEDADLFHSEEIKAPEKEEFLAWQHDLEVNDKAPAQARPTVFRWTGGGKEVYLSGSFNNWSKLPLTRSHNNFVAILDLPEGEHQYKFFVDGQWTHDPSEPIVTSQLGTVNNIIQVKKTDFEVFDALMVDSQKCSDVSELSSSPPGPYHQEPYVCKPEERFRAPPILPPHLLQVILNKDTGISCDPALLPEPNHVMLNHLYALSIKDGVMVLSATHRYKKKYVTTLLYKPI
# assayProcedure: Activation of recombinant AMPK alpha2beta1gamma1 (unknown origin) at 20 ug/mL after 2 hrs by scintillation proximity assay relative to AMP
# Type: protein-complex assay
Consider the following compounds; for each one, report its Efficacy.
Give your result in % as a bare value.

Let me know recorded Efficacy for O=C1/C(=C(\c2ccccc2)c2ccc(Cl)cc2)c2ccccc2N1Cc1ccccc1 , thanks.
70

Given O=C(O)c1cccc(CN2C(=O)/C(=C(/c3ccc(Cl)cc3)C3CCCCC3)c3ccccc32)c1 , respond with its Efficacy.
103

Read the entry CC(C)NC(=O)c1cccc(CN2C(=O)/C(=C(\c3ccccc3)c3ccc(Cl)cc3)c3ccccc32)c1 and write its reported Efficacy.
151

Provide one value: measured Efficacy of Cc1cc(-c2ccc(/C=C3\S/C(=N\c4ccc(Cl)c(C(=O)O)c4)NC3=O)o2)c([N+](=O)[O-])cc1C
40

Please give measured Efficacy of the following entry: O=C(O)c1cccc(CN2C(=O)/C(=C/c3ccc(-c4cccc([N+](=O)[O-])c4)o3)c3ccccc32)c1
152

Supply recorded Efficacy for O=C(O)c1cccc(CN2C(=O)/C(=C(\c3ccccc3)c3ccccc3Cl)c3ccccc32)c1 here.
101

Return the recorded Efficacy value; entry: O=C(O)c1cccc(CN2C(=O)/C(=C(\c3ccccc3)c3cccnc3)c3ccccc32)c1
96

====

# assayProcedure: AUC (0 to infinity) in Wistar rat at 10 mg/kg, po by LC-MS/MS analysis
# Type: ADME, organism-based
# Design: time infinity, dose 10 mg/kg, route oral
# particulars: plasma
parameterMeasured: AUC(0-inf) (ng·h/mL)
Write down the numeric answer in ng·h/mL and omit the unit.

Please list AUC(0-inf) recorded for the compound O=C(O)c1cccc(CN2C(=O)/C(=C(\c3ccccc3)c3ccc(Cl)cc3)c3ccccc32)c1
29500

====

# systemName: AMPK alpha2/beta1/gamma1 (Homo sapiens, UniProt P54619+P54646+Q9Y478)
# Sequence (P54646 whole entry): as the sequence (P54646 whole entry) above
# Sequence (P54619 whole entry): as the sequence (P54619 whole entry partner) above
# Sequence (Q9Y478 whole entry): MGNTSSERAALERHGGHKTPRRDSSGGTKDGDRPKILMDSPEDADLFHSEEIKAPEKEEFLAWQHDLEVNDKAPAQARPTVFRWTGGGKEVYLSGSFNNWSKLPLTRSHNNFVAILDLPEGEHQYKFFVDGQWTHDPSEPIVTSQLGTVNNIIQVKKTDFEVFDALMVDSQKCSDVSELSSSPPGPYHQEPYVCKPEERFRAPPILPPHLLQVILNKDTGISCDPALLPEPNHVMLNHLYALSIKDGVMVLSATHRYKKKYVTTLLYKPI
# assayProcedure: Activation of recombinant AMPK alpha2beta1gamma1 (unknown origin) after 2 hrs by scintillation proximity assay
Label satisfied when EC50 < 4 µM; otherwise not satisfied.

In plain terms, does O=C(O)c1cccc(CN2C(=O)/C(=C(\c3ccccc3)c3ccc(F)c(Cl)c3)c3ccccc32)c1 come in under 4 µM for EC50?
not satisfied

Dear reviewer, please state whether O=C1/C(=C(\c2ccccc2)c2ccc(Cl)cc2)c2ccccc2N1Cc1ccccc1 has EC50 strictly beneath 4 µM.
satisfied

Is the reported EC50 for CC(C)NC(=O)c1cccc(CN2C(=O)/C(=C(\c3ccccc3)c3ccc(Cl)cc3)c3ccccc32)c1 strictly below 4 µM?
not satisfied

is_below(EC50, 4 µM) for Cc1cc(-c2ccc(/C=C3\S/C(=N\c4ccc(Cl)c(C(=O)O)c4)NC3=O)o2)c([N+](=O)[O-])cc1C ?
satisfied

Quick check: does O=C(O)c1cccc(CN2C(=O)/C(=C/c3ccc(-c4cccc([N+](=O)[O-])c4)o3)c3ccccc32)c1 have EC50 under 4 µM?
satisfied

Dear colleague, could you confirm whether EC50 of CC(C)/C(=C1\C(=O)N(Cc2cccc(C(=O)O)c2)c2ccccc21)c1ccccc1 falls below 4 µM? Thanks.
not satisfied

Determine whether this compound shows EC50 lower than 4 µM (ties excluded): CC(C)/C(=C1\C(=O)N(Cc2cccc(C(=O)O)c2)c2ccccc21)c1ccc(Cl)cc1
not satisfied

Consider O=C(O)c1cccc(CN2C(=O)/C(=C(\c3ccccc3)c3ccccc3Cl)c3ccccc32)c1 . Does its EC50 lie strictly below 4 µM?
satisfied

Input O=C(O)c1cccc(CN2C(=O)/C(=C/c3ccc(-c4ccc(F)c(Cl)c4)o3)c3ccccc32)c1 ; condition: EC50 strictly below 4 µM. Does it hold?
not satisfied

====

# assayProcedure: Oral bioavailability in Wistar rat at 10 mg/kg by LC-MS/MS analysis
# Type: ADME, organism-based
# particulars: in vivo
parameterMeasured: bioavailability (%)
Could you give me the number in %? Just the number is fine.

Give the value of bioavailability reported for the following: O=C(O)c1cccc(CN2C(=O)/C(=C(\c3ccccc3)c3ccc(Cl)cc3)c3ccccc32)c1
33.7

====

# assayProcedure: AUC (0 to 24 hrs) in Wistar rat at 2 mg/kg, iv by LC-MS/MS analysis
# Type: ADME, organism-based
# Set-up: time < 24 hr, dose 2 mg/kg, route intravenous
# particulars: plasma
parameterMeasured: AUC(0-t) at 24 h
Write down the value, and be sure its unit follows.

In one line, give reported AUC(0-t) at 24 h of the entry O=C(O)c1cccc(CN2C(=O)/C(=C(\c3ccccc3)c3ccc(Cl)cc3)c3ccccc32)c1 .
17300 ng·h/mL

====

For each entry below, report its Efficacy value.
# systemName: AMPK alpha2/beta1/gamma1 (Homo sapiens) (UniProt P54646+P54619+Q9Y478)
# assayProcedure: Activation of recombinant AMPK alpha2beta1gamma1 (unknown origin) at 20 ug/mL after 2 hrs by scintillation proximity assay relative to AMP
# Format: protein-complex assay
Enter your answer as a number in %; do not include the unit.

Fill in Efficacy for O=C(O)c1ccc(CN2C(=O)/C(=C(\c3ccccc3)c3ccc(Cl)cc3)c3ccccc32)nc1 tested with AMPK alpha2/beta1/gamma1 (Homo sapiens) (UniProt P54646+P54619+Q9Y478).
75

With AMPK alpha2/beta1/gamma1 (Homo sapiens) (UniProt P54646+P54619+Q9Y478) as the test system, provide measured Efficacy for this compound: CC(C)/C(=C1\C(=O)N(Cc2cccc(C(=O)O)c2)c2ccccc21)c1ccc(Cl)cc1
227

Quote Efficacy with test system AMPK alpha2/beta1/gamma1 (Homo sapiens) (UniProt P54646+P54619+Q9Y478) for O=C(O)c1cccc(CN2C(=O)/C(=C(\c3ccccc3)c3ccc(F)c(Cl)c3)c3ccccc32)c1
105

Please report the measured Efficacy for O=C(O)c1cccc(CN2C(=O)/C(=C/c3ccc(-c4ccc(F)c(Cl)c4)o3)c3ccccc32)c1 tested on AMPK alpha2/beta1/gamma1 (Homo sapiens) (UniProt P54646+P54619+Q9Y478).
122

Fetch value of Efficacy on AMPK alpha2/beta1/gamma1 (Homo sapiens) (UniProt P54646+P54619+Q9Y478) for O=C(O)c1cccc(CN2C(=O)/C(=C(\c3ccccc3)c3ccccc3OC(F)(F)F)c3ccccc32)c1 .
99

Give measured Efficacy for CC(C)c1ccc(/C(=C2/C(=O)N(Cc3cccc(C(=O)O)c3)c3ccccc32)c2ccccc2)cc1 (AMPK alpha2/beta1/gamma1 (Homo sapiens) (UniProt P54646+P54619+Q9Y478)).
97

Identify measured Efficacy obtained with AMPK alpha2/beta1/gamma1 (Homo sapiens) (UniProt P54646+P54619+Q9Y478) for O=C(O)c1cccc(CN2C(=O)/C(=C(\c3ccccc3)c3ccc(Cl)cc3)c3ccccc32)c1 .
110

====

# assayProcedure: Half life in Wistar rat at 10 mg/kg, po by LC-MS/MS analysis
# Format: ADME, organism-based
# Design: dose 10 mg/kg, route oral
# particulars: in vivo
parameterMeasured: half-life
Form field: result (number plus unit)

Return value of half-life for input O=C(O)c1cccc(CN2C(=O)/C(=C(\c3ccccc3)c3ccc(Cl)cc3)c3ccccc32)c1 , no commentary.
4 h
